Data provenance is patent EP4721754A1.

Molecular target: T1, calcitonin receptor (hCTR) (human, UniProt P30988 25-474)
T1 sequence (looked up): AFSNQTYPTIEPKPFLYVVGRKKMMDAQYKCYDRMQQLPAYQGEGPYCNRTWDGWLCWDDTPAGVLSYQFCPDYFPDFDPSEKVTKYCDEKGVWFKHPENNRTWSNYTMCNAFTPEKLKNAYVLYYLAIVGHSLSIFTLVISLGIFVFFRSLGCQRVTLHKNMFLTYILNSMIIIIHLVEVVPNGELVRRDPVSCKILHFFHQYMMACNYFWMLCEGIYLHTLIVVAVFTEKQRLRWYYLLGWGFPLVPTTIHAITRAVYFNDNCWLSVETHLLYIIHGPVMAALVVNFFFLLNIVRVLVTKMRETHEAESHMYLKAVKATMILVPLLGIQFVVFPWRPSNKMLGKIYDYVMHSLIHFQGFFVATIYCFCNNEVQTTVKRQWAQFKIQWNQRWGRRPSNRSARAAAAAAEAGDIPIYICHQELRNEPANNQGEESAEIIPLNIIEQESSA
Assay: cell-based or functional assay
Numbered stars: 1 amine (or outer) side, 2 acyl side, 3 side chain; on linkers, the order of the positions; unused ones are H or OH. Primed or numbered codes have the meaning given here. * marks the point of attachment. C20 diacid = O=C(O)CCCCCCCCCCCCCCCCCCC(=O)*; C18 diacid = O=C(O)CCCCCCCCCCCCCCCCC(=O)*; γGlu = O=C(O)[C@H](CCC(=O)[*:2])N[*:1]; Inp′ = not defined here; AEEA = NCCOCCOCC(=O)O
measure: Fold change in activity against hCTR (benchmark D1) (fold)
One number for each entry, in fold.

Take a look at these entries with their results.
{"columns": ["binder", "measured-value"],
 "data": [
  ["ASQLSTAVLGRLSDELHRLQDYPRTDVGSGSP (not fully specified; N terminus: C20 diacid + βAsp+2 AEEAs) [M25]", 0.623],
  ["{C20 diacid-γGlu}-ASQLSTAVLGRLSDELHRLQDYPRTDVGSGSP-NH2 (ends and bridges not checked) [M6]", 3.07],
  ["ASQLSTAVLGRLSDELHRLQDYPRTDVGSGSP (not fully specified; N terminus: C20 diacid + Inp) [M16]", 0.229],
  ["{C18 diacid-Inp′-AEEA-AEEA}-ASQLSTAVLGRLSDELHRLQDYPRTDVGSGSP-NH2 [M30]", 0.848],
  ["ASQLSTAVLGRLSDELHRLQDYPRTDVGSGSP (not fully specified; N terminus: C20 diacid + yGlu+2 AEEAs) [M18]", 1.25]
]}

Quick one: give me Fold change in activity against hCTR (benchmark D1) for each item below, same order please.
1. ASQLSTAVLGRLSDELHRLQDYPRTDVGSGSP (N terminus: C18 diacid + Trx+2 AEEAs) [M28]
2. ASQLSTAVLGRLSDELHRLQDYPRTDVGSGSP (not fully specified; N terminus: C20 diacid + Trx) [M14]
3. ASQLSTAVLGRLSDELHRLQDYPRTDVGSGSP (not fully specified; N terminus: C20 diacid + Inp+2 AEEAs) [M29]

1. 0.966
2. 0.147
3. 0.551
